- Target Desc: human P-gp (Homo sapiens, UniProt P08183)
- Construct: host or cells: MDCKII-MDR1 (stably transfected canine kidney cells)
- Sequence (P08183 whole entry): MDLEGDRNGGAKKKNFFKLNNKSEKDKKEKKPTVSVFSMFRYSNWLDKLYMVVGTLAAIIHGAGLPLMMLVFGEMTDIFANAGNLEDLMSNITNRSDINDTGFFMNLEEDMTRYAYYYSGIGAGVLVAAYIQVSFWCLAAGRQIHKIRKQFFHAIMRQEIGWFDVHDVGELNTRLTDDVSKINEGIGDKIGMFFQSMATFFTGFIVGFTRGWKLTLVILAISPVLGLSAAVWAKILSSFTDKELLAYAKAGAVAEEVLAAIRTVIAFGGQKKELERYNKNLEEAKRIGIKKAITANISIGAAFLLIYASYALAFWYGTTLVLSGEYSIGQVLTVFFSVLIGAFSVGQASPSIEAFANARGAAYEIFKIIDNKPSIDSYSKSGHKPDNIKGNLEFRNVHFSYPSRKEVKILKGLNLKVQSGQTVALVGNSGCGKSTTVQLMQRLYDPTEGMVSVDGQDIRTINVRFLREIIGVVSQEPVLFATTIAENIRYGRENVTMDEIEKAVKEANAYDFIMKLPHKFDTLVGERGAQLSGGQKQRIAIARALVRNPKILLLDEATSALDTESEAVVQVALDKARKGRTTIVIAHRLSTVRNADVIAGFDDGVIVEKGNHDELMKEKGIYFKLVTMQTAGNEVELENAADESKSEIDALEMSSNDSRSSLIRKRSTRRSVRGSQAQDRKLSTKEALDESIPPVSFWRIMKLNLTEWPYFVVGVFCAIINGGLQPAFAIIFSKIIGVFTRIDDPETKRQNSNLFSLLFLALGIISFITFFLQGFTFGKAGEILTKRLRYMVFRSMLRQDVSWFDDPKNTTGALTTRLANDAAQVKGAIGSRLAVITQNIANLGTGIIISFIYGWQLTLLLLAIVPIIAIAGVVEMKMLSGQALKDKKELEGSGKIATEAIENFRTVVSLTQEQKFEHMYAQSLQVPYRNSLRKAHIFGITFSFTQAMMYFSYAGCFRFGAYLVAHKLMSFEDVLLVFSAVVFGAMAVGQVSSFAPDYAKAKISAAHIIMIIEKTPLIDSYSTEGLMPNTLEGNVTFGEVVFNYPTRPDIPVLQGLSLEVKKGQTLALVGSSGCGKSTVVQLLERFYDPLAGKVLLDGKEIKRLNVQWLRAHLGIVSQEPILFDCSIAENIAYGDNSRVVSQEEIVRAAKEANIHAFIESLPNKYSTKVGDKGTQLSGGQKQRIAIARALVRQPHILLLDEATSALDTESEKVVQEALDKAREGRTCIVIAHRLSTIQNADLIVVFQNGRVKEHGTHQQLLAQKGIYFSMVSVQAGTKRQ
- Run Description: Uptake assay in P-gp overexpressing MDCKII-MDR1 cells with radiolabeled substrate and tariquidar
- Format: cell-based
- Run Conditions: [11C]domperidone as substrate, 30 min incubation, CI95% 198-248 nM, read-out: IC50 of TQD (P-gp inhibition)
Quantity Measured: IC50
Include the unit right after the number.

Value of IC50 reported for the molecule `COc1cc2c(cc1OC)CN(CCc1ccc(NC(=O)c3cc(OC)c(OC)cc3NC(=O)c3cnc4ccccc4c3)cc1)CC2` is 221 nM

---

- System: P-gp
- Run Description: Brain PET imaging in rats at baseline and after P-gp inhibition with TQD
- Type: in vivo
- Run Conditions: brain/plasma, with tariquidar; rat; presence of P-gp inhibition (TQD); newly calculated from published PET data of ref 21, 24
Quantity Measured: Kp
Numbers only.

Tested system P-gp; Kp recorded for CCN(CC)CCNC(=O)c1cc(Cl)c(N)cc1O[11CH3] [[^11C]metoclopramide] was 47
